A collection of binders and their measured koff
test.target: T1, human PACAP27 (human, C-terminal leucine is amidated; 125I-labelled in Example 10)
T1 peptide: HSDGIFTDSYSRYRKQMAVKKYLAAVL
assay.protocol: SPR, Ab immobilised
The answer is to be given in s⁻¹; state only the numeric part.

anti-PACAP antibody Ab15 (antibody, human IgG1, kappa, N297A, V domains shown, full-length rabbit/human chimeric antibody) VH: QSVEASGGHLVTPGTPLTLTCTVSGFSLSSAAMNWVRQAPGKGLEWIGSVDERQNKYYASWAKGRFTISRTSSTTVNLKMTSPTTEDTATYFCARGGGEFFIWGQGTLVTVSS VL: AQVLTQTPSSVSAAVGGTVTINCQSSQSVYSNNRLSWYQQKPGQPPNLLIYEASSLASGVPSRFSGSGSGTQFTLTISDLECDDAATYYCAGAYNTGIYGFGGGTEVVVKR = 7.8e-05

Now take the following binder into account.
For this binder ( anti-PACAP antibody Ab13 (antibody, human IgG1, kappa, N297A, V domains shown, full-length rabbit/human chimeric antibody) VH: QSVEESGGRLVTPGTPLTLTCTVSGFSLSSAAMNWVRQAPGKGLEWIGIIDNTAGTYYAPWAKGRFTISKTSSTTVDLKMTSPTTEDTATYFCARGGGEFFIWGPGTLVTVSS VL: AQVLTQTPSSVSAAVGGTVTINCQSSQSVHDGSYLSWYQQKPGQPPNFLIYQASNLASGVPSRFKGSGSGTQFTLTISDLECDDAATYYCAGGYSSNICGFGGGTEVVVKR ), measured koff is 6.6e-05
